Tested on: H3122
Test: IC50 assay, NSCLC cell lines (Cell Titer Glo, total ATP)
Type: cell-based
Conditions: Homo sapiens, NCI-H3122, read-out: Indisulam IC50, U2AF1 WT
Protocol: Cells were plated at ˜15% confluence in a media comprising 5% concentration of fetal bovine serum supplemented with RPMI, which included 2 mM L-Glutamine in a 96 well dish. […] Following three days of incubation in a 5% CO2 incubator, the total ATP in each well was quantified using Cell Titer Glo (Promega). […] The solid lines represent the medians.
measured-property: IC50 (µM)
Kindly answer with a numeric value in µM, unit omitted.

Input line: Name the reported IC50 value associated with the compound "NS(=O)(=O)c1ccc(S(=O)(=O)Nc2cccc3c(Cl)c[nH]c23)cc1"
Output line: 70.1

---

system: H1648; assay: IC50 assay, NSCLC cell lines (Cell Titer Glo, total ATP); assay type: cell-based; conditions: Homo sapiens, NCI-H1648, read-out: Indisulam IC50, U2AF1 WT
measured-property: pIC50
To interpret pIC50, take it as minus log10 of a concentration measured in moles per litre.

Input line: What value of measured pIC50 is listed for "NS(=O)(=O)c1ccc(S(=O)(=O)Nc2cccc3c(Cl)c[nH]c23)cc1" ?
Output line: 4.77

---

tested on: H2172; assay: IC50 assay, NSCLC cell lines (Cell Titer Glo, total ATP); format: cell-based; conditions: Homo sapiens, NCI-H2172, read-out: Indisulam IC50, U2AF1 WT
measured-property: IC50

Input line: Requested field: IC50. Item: "NS(=O)(=O)c1ccc(S(=O)(=O)Nc2cccc3c(Cl)c[nH]c23)cc1"
Output line: 20.5 µM

---

test system: WI38; test: IC50 assay, NSCLC cell lines (Cell Titer Glo, total ATP); format: cell-based; details: Homo sapiens, WI-38, read-out: Indisulam IC50, U2AF1 WT
measured-property: IC50 (µM)
Write the answer as a number in µM, unit excluded.

Input line: Return reported IC50; argument: "NS(=O)(=O)c1ccc(S(=O)(=O)Nc2cccc3c(Cl)c[nH]c23)cc1"
Output line: 10

---

tested on: H358; assay: IC50 assay, NSCLC cell lines (Cell Titer Glo, total ATP); assay type: cell-based; conditions: Homo sapiens, NCI-H358, read-out: Indisulam IC50, U2AF1 WT
measured-property: IC50
Record the result as number plus unit.

Input line: Item under review: "NS(=O)(=O)c1ccc(S(=O)(=O)Nc2cccc3c(Cl)c[nH]c23)cc1" . Reported IC50?
Output line: 2.83 mM

---

System: H441
Assay: IC50 assay, NSCLC cell lines (Cell Titer Glo, total ATP)
Assay type: cell-based
Details: Homo sapiens, NCI-H441, read-out: Indisulam IC50, U2AF1 S34F
Experimental: Cells were plated at ˜15% confluence in a media comprising 5% concentration of fetal bovine serum supplemented with RPMI, which included 2 mM L-Glutamine in a 96 well dish. […] Following three days of incubation in a 5% CO2 incubator, the total ATP in each well was quantified using Cell Titer Glo (Promega). […] The solid lines represent the medians.
measured-property: IC50 (µM)
The response must be a number in µM with no trailing unit.

Input line: Given the entry NS(=O)(=O)c1ccc(S(=O)(=O)Nc2cccc3c(Cl)c[nH]c23)cc1 [Indisulam, indisulam] , report its measured IC50.
Output line: 59.5

---

tested on: HCT-116 RBM39 G268V knock-in cells; assay: Cell viability assay, RBM39 G268V knock-in; type: cell-based, human; conditions: Homo sapiens, HCT-116, two independent RBM39 G268V knock-in HCT-116 clones
measured-property: IC50 (µM)
The reply should contain only the number, in µM.

Input line: Dear colleague, I am looking for the recorded IC50 of the following compound: "NS(=O)(=O)c1ccc(S(=O)(=O)Nc2cccc3c(Cl)c[nH]c23)cc1"
Output line: 38.9

---

target: RBM39-Nluc (Homo sapiens, UniProt Q14498+Q66K64); construct: Homology directed repair facilitates tagging of endogenous RBM39 by AID, 3xFLAG, AcGFP, or Nanoluciferase; endogenous in cells; assay: RBM39-Nluc degradation by Nano-Glo luciferase assay; conditions: H1155 RBM39-Nluc cells; read-out: decrease in RBM39-Nluc activity (IC50)
measured-property: pIC50
Please express pIC50 as -log10 of the molar concentration.

Input line: Return reported pIC50; argument: "O=C(NS(=O)(=O)c1ccc(Br)s1)c1ccc(Cl)cc1Cl"
Output line: 5.25

---

test system: HCC4006; test: IC50 assay, NSCLC cell lines (Cell Titer Glo, total ATP); assay type: cell-based; conditions: Homo sapiens, read-out: Indisulam IC50, U2AF1 WT
measured-property: IC50 (µM)
Field: numeric (µM). Do not append units.

Input line: Returns the measured IC50 for the input compound. Input: "NS(=O)(=O)c1ccc(S(=O)(=O)Nc2cccc3c(Cl)c[nH]c23)cc1"
Output line: 0.735

---

tested on: H1819; assay: IC50 assay, NSCLC cell lines (Cell Titer Glo, total ATP); assay type: cell-based; settings: Homo sapiens, NCI-H1819, read-out: Indisulam IC50, U2AF1 WT
measured-property: pIC50
Keep it numeric: pIC50 is minus log10 of the concentration in mol/L.

Input line: Can you look up the measured pIC50 of "NS(=O)(=O)c1ccc(S(=O)(=O)Nc2cccc3c(Cl)c[nH]c23)cc1" for me?
Output line: 5.02

---

test system: H820; assay: IC50 assay, NSCLC cell lines (Cell Titer Glo, total ATP); type: cell-based; conditions: Homo sapiens, NCI-H820, read-out: Indisulam IC50, U2AF1 WT
measured-property: pIC50
// pIC50: -log10(molar conc.)

Input line: Give the measured pIC50 of NS(=O)(=O)c1ccc(S(=O)(=O)Nc2cccc3c(Cl)c[nH]c23)cc1 [Indisulam, indisulam] .
Output line: 5.29

---

tested on: H1703; test: IC50 assay, NSCLC cell lines (Cell Titer Glo, total ATP); assay type: cell-based; settings: Homo sapiens, NCI-H1703, read-out: Indisulam IC50, U2AF1 WT
measured-property: pIC50
A value of pIC50 is the negative decimal logarithm of a concentration given in moles per litre.

Input line: Bench note: what pIC50 did NS(=O)(=O)c1ccc(S(=O)(=O)Nc2cccc3c(Cl)c[nH]c23)cc1 [Indisulam, indisulam] show?
Output line: 5.48

---

system: H1693; assay: IC50 assay, NSCLC cell lines (Cell Titer Glo, total ATP); format: cell-based; settings: Homo sapiens, NCI-H1693, read-out: Indisulam IC50, U2AF1 WT
measured-property: IC50 (µM)
Give the value in µM but do not write µM after it.

Input line: // IC50 lookup, key: NS(=O)(=O)c1ccc(S(=O)(=O)Nc2cccc3c(Cl)c[nH]c23)cc1 [Indisulam, indisulam]
Output line: 5.17

---

test system: H920; test: IC50 assay, NSCLC cell lines (Cell Titer Glo, total ATP); assay type: cell-based; settings: Homo sapiens, read-out: Indisulam IC50, U2AF1 WT
measured-property: pIC50
The meaning of pIC50 here: minus log10 of the concentration in molar units.

Input line: Please report the recorded pIC50 for NS(=O)(=O)c1ccc(S(=O)(=O)Nc2cccc3c(Cl)c[nH]c23)cc1 [Indisulam, indisulam] .
Output line: 5.66

---

system: H2444; assay: IC50 assay, NSCLC cell lines (Cell Titer Glo, total ATP); assay type: cell-based; settings: Homo sapiens, NCI-H2444, read-out: Indisulam IC50, U2AF1 WT
measured-property: pIC50
pIC50 is a log-scale quantity: -log10 of the concentration expressed in molar.

Input line: What value of measured pIC50 is listed for NS(=O)(=O)c1ccc(S(=O)(=O)Nc2cccc3c(Cl)c[nH]c23)cc1 [Indisulam, indisulam] ?
Output line: 4.85

---

test system: HCT-116 cells; assay: Cell viability assay (CellTiter-Glo); format: cell-based, human; details: Homo sapiens, read-out: concentration required to reduce the viability by 50% (IC50); parental HCT-116 cells
measured-property: pIC50
Please treat pIC50 as minus the base-10 logarithm of the molar concentration.

molecule | numeric-result
NS(=O)(=O)c1ccc(S(=O)(=O)Nc2cccc3c(Cl)c[nH]c23)cc1 | 6.25

Kindly review the next molecule as well.
Input line: Sample Nc1ccc(S(=O)(=O)Nc2cnc3c(Cl)cccc3n2)cc1 [CQS, chloroquinoxaline sulfonamide] — what was its pIC50?
Output line: 5.15

---

tested on: H1650; assay: IC50 assay, NSCLC cell lines (Cell Titer Glo, total ATP); type: cell-based; conditions: Homo sapiens, NCI-H1650, read-out: Indisulam IC50, U2AF1 WT
measured-property: IC50 (µM)
Respond numerically; units are µM and should not be typed.

Input line: Could you share which IC50 value was measured for "NS(=O)(=O)c1ccc(S(=O)(=O)Nc2cccc3c(Cl)c[nH]c23)cc1" ?
Output line: 31.9

src = patent US20180140578A1
